Please respond with reported IC50 for every item in the list.
- TARGET_OR_SYSTEM: 20S proteasome (Homo sapiens, UniProt P28074+P49721)
- MEASUREMENT_DESCRIPTION: 20S proteasome activity (chymotrypsin-like, Suc-Leu-Leu-Val-Tyr-MCA substrate)
- ASSAY_CONTEXT: in vitro, 37 °C, 1 h
One number for each entry, in µM.

COMPOUND: O=C(CC12CCCN1CCC2)Nc1cccc(F)c1 [3-F]
VALUE_OBSERVED: 20.5

COMPOUND: O=C(CC12CCCN1CCC2)Nc1ccccc1F [2-F]
VALUE_OBSERVED: 21.5

COMPOUND: Cc1cccc(C)c1OCC(C)N (stereo not shown) [mexiletine]
VALUE_OBSERVED: 14

Next, consider the following compound.
Input Cc1cccc(C)c1NC(=O)CC12CCCN1CCC2 [pilsicainide] , output reported IC50.
3.5
